System: MCF-7 (breast) cells
experimentalProtocol: MTS cell survival assay, MCF-7 (breast)
Type: cell-based
recordedConditions: 48 hours incubation, read-out: IC50 cell line MCF-7
Protocol: Seed 96-well plates at a concentration of 5000 cells/well in a volume of 100 μl with A2780 (ovarian), HT-29 (colon), MDA-MB-231 (breast), NCI-H1299 (non-small cell lung, MCF-7 (breast) cells or any other available cancer cell line. Incubate for 24 hours at 37° C. Prepare a stock solution of Tubulysin derivative by dissolving at 10 mg/ml in methanol. […] Shake the plates for 5 minutes and measure the absorbance at 485 nm using a plate reader (e.g. Tecan). […]
readout: pIC50
Answers are plain numbers, as −log10 of the molar value.

// pIC50 value for CC[C@H](C)C(NC(=O)C1CCCCN1C)C(=O)N(COC(=O)CC(C)C)[C@H](C[C@@H](OC(C)=O)c1nc(C(=O)N[C@@H](Cc2ccc(O)cc2)C[C@H](C)C(=O)O)cs1)C(C)C (stereo partly shown) : 9.22
